Target: equine FcRn (large alpha subunit p51) / equine beta-2-microglobulin complex, biotinylated (equine) (UniProt P30441)
Assay: SPR (Biacore), pH 6
readout: Kd (nM)

binder | readout | displayUnit | measured
equine IgG1 M428L (antibody, part only; not given: variable domains, not shown: another chain or arm of the molecule) constant: ASTTAPKVFALAPGCGTTSDSTVALGCLVSGYFPEPVKVSWNSGSLTSGVHTFPSVLQSSGFYSLSSMVTVPASTWTSETYICNVVHAASNFKVDKRIEPIPDNHQKVCDMSKCPKCPAPELLGGPSVFIFPPNPKDTLMITRTPEVTCVVVDVSQENPDVKFNWYMDGVEVRTATTRPKEEQFNSTYRVVSVLRIQHQDWLSGKEFKCKVNNQALPQPIERTITKTKGRSQEPQVYVLAPHPDELSKSKVSVTCLVKDFYPPEINIEWQSNGQPELETKYSTTQAQQDSDGSYFLYSKLSVDRNRWQQGTTFTCGVLHEALHNHYTQKNVSKNPGK | Kd | nM | 8.76
